- target: Serine/threonine-protein kinase Chk1 (Homo sapiens, UniProt O14757)
- Sequence (O14757 whole entry): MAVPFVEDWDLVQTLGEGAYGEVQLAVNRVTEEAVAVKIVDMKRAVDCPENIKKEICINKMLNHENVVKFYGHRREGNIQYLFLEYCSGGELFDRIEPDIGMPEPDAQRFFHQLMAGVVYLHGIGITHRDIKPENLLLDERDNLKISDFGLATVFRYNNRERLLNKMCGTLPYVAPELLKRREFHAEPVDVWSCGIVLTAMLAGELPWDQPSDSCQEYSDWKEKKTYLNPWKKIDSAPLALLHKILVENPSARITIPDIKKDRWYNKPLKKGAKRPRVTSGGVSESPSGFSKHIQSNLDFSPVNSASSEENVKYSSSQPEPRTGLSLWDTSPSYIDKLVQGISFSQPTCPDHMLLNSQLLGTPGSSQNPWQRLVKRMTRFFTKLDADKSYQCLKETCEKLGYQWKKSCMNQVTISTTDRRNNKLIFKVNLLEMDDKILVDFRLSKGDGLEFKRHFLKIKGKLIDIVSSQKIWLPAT
Literature-derived IC50 for Serine/threonine-protein kinase Chk1 (Homo sapiens, UniProt O14757) follows.

Worked set:
> print(dat)
                               given.smiles                                    target  measured.attribute  experimental.value
1  CS(=O)(=O)c1cccc(Nc2nccc(Nc3c(Cl)ccc4c3OCO4)n2)c1  Serine/threonine-protein kinase Chk1 (Homo sapiens, UniProt O14757)                IC50             > 30 µM
2  COc1cc2ncnc(Nc3cccc(Cl)c3F)c2cc1CN1CCC[C@@H]1C(=O)N(C)C  Serine/threonine-protein kinase Chk1 (Homo sapiens, UniProt O14757)                IC50             > 10 µM

# value lookup — system Serine/threonine-protein kinase Chk1 (Homo sapiens, UniProt O14757), readout IC50, item "COC(=O)Nc1ccc(-c2nc(N3CCOCC3)c3cnn(C4CCN(C(=O)OC)CC4)c3n2)cc1"
> 50 µM

# value lookup — system Serine/threonine-protein kinase Chk1 (Homo sapiens, UniProt O14757), readout IC50, item "COc1cc2ncnc(Nc3cccc(Cl)c3F)c2cc1CN(C)C1(C(N)=O)CCN(C(C)C)CC1"
> 10 µM
